MEASUREMENT_DESCRIPTION: Clinical test in humans, three 30-min i.v. infusions 8 hours apart, plasma PK
Assay type: in vivo
MEASUREMENT_CONTEXT: human, in vivo, iv, 200 ug/kg, three 30-min i.v. infusions 8 h apart, 200 μg/kg each, mean, read-out: AUC0-tau2
Ends that are not written are not given here.
PARAMETER_MEASURED: AUC (ng·h/mL)
Please state the figure in ng·h/mL; there is no need to write the unit.

Query: Recorded AUC of AMVSEFLKQAWFIENEEQEYVQTLKSSKGGPGSAVSPYPTFNPSSDV-NH2 [Peptide 1] , please.
Result: 2690

Cited source for all entries: patent US20250345392A1
